target: T1, Human CCR8 (C-C chemokine receptor type 8) expressed on CHO-S cells (human, UniProt P51685 1-355); experiment: KinExA, on-cell affinity
T1 construct: also called huCCR8; human CCR8-expressing CHO-S cells
T1 sequence (P51685 whole entry): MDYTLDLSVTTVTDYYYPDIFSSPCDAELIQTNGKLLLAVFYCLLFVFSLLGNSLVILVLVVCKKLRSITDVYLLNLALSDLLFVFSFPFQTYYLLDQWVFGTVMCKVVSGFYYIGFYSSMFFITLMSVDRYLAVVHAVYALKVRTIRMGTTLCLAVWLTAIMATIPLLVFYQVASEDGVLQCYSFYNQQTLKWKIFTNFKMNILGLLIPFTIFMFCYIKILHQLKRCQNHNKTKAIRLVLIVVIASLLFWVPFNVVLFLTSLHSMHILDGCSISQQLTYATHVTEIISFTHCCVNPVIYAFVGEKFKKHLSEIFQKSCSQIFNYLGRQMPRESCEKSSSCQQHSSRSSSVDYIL
Assay endpoint: Kd (pM)
Kindly provide the numeric value in pM only, without the unit symbol.

Humanized 1-K17.044 (antibody, human IgG1, kappa, V domains shown, Humanized with hotspot correction) VH: EVQLVQSGAEVKKPGASVKVSCKASGYTFTSYNMHWVRQAPGQGLEWIGAIYPGAGDTSYNQKFKGRATLTADKSTSTAYMELSSLRSEDTAVYYCARKGGTPFAYWGQGTLVTVSS VL: DVVMTQSPLSLPVTLGQPASISCRSSQSLVHSNAATYLYWYQQRPGQSPRLLIYKVSNRFSGVPDRFSGSGSGTDFTLKISRVEAEDVGVYFCSQSTHVPYTFGQGTKLEIKR = 8.05
Humanized 1-K17.015 (antibody, human IgG1, kappa, V domains shown, Humanized with hotspot correction) VH: EVQLVQSGAEVKKPGASVKVSCKASGYTFTSYNMHWVRQAPGQRLEWIGAIYPGQGDTSYNQKFKGRATLTADKSASTAYMELSSLRSEDTAVYYCARKGGTPFAYWGQGTLVTVSS VL: DVVMTQSPLSLPVTLGQPASISCRSSQSLVHSNAQTYLYWYQQRPGQSPRLLIYKVSNRFSGVPDRFSGSGSGTDFTLKISRVEAEDVGVYFCSQSTHVPYTFGQGTKLEIKR = 14.5
Humanized 7-B16.001 (antibody, human IgG1, kappa, V domains shown, Humanized) VH: EVQLVESGGGLVQPGGSLKLSCAASGFTFNTYAMNWVRQASGKGLEWVGRIRSKSNNYATYYADSVKDRFTISRDDSKNTAYLQMNSLKTEDTAVYYCVRGLLRYRFFDVWGQGTTVTVSS VL: DIVMTQSPLSLPVTPGEPASISCRSSKSLLHSNGNTYLYWFLQKPGQSPQLLIYRMSNLASGVPDRFSGSGSGTDFTLKISRVEAEDVGVYYCMQHLEYPFTFGGGTKVEIKR = 15.9

Let's switch to this binder now.
Consider the binder Humanized 7-B16.033 (antibody, human IgG1, kappa, V domains shown, Humanized) VH: EVQLVESGGGLVQPGRSLRLSCTASGFTFATYAMNWVRQAPGKGLEWVARIRSKSNNYATYYADSVKDRFTISRDDSKSILYLQMNSLKTEDTAVYYCVRGLLRYRFFDVWGQGTTVTVSS VL: DIVMTQSPLSLPVTPGEPASISCRSSKSLLHSNGNTYLYWFLQKPGQSPQLLIYRMSNLASGVPDRFSGSGSGTDFTLKISRVEAEDVGVYYCMQHLEYPFTFGGGTKVEIKR . State its measured Kd.
74.6

Data provenance: patent US20260116987A1
